- experimentalTarget: Delta-type opioid receptor (Rattus norvegicus, UniProt P33533)
- Sequence (P33533 whole entry): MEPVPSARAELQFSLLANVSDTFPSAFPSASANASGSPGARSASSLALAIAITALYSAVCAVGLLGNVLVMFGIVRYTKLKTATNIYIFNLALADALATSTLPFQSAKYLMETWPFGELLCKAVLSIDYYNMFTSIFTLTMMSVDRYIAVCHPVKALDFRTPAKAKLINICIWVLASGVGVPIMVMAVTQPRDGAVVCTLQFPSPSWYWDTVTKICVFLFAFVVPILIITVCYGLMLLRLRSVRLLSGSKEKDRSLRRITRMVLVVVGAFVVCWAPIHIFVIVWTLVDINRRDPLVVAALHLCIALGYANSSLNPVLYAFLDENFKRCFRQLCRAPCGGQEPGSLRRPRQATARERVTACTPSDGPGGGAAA
- experimentSummary: Displacement of [3H]deltorphin II from delta opioid receptor in rat synaptosomes P2 fraction
Measured pKi accompanies every entry in the list below.
In plain terms, pKi is the concentration in mol/L turned into minus its base-10 logarithm.

As a guide, the following entries are already answered.
>>> recordedvalue("Cc1cc(O)cc(C)c1C[C@H](N)C(=O)NCCCCc1nc(C)c(CCCNC(=O)[C@@H](N)Cc2c(C)cc(O)cc2C)[nH]c1=O")
7.50
>>> recordedvalue("Cc1nc(CCCCNC(=O)[C@@H](N)Cc2ccc(O)cc2)c(=O)[nH]c1CCCNC(=O)[C@@H](N)Cc1ccc(O)cc1")
6.03
>>> recordedvalue("Cc1cc(O)cc(C)c1C[C@H](N)C(=O)NCCCCc1[nH]c(=O)c(CCCNC(=O)[C@@H](N)Cc2c(C)cc(O)cc2C)nc1C")
7.73

Attention now turns to another entry.
**Query** Which measured pKi value corresponds to Cc1nc(CCCNC(=O)[C@@H](N)Cc2ccc(O)cc2)c(=O)[nH]c1CCCCNC(=O)[C@@H](N)Cc1ccc(O)cc1 ?
**Result** 5.56

# credit: ChEMBL document CHEMBL1139715
